Hello, the source for this data is patent US5691351A, in case you need it.

Test system: Calcium Ionophore Stimulated Leukotriene Formation in Human Polymorphonuclear Leukocytes
Test: Calcium ionophore-induced LTB4 formation in human polymorphonuclear leukocytes (Lipoxygenase Inhibition Determination)
Format: cell-based
Conditions: human PMNL; 15 min preincubation; calcium ionophore 8.3 μM, 10 min at 37° C.; LTB4 by enzyme-linked immunoassay or HPLC; read-out: Inhibitory Potencies Against Calcium Ionophore Stimulated Leukotriene Formation in Human Polymorphonuclear Leukocytes, IC50
Where a name gives a salt, the structure may show the parent alone.
Measured parameter: pIC50
In plain terms, pIC50 is the concentration in mol/L turned into minus its base-10 logarithm.

compound=O=C(O)C1CCC(c2ccc(OCc3ccc4ccccc4n3)cc2)(c2ccc(OCc3ccc4ccccc4n3)cc2)CC1 measured_parameter=pIC50 readout_number=7.23

Query compound follows.
Per the records, this compound ( CC(=NOC1CCC(c2ccc(OCc3ccc4ccccc4n3)cc2)(c2ccc(OCc3ccc4ccccc4n3)cc2)CC1)C(=O)O [Example 5, sodium salt] ) has pIC50 equal to 7.43
